TARGET: Clostridium difficile toxin A (TcdA) (Clostridium difficile strain 10463, UniProt P16154 1-2710)
Sequence (P16154 whole entry): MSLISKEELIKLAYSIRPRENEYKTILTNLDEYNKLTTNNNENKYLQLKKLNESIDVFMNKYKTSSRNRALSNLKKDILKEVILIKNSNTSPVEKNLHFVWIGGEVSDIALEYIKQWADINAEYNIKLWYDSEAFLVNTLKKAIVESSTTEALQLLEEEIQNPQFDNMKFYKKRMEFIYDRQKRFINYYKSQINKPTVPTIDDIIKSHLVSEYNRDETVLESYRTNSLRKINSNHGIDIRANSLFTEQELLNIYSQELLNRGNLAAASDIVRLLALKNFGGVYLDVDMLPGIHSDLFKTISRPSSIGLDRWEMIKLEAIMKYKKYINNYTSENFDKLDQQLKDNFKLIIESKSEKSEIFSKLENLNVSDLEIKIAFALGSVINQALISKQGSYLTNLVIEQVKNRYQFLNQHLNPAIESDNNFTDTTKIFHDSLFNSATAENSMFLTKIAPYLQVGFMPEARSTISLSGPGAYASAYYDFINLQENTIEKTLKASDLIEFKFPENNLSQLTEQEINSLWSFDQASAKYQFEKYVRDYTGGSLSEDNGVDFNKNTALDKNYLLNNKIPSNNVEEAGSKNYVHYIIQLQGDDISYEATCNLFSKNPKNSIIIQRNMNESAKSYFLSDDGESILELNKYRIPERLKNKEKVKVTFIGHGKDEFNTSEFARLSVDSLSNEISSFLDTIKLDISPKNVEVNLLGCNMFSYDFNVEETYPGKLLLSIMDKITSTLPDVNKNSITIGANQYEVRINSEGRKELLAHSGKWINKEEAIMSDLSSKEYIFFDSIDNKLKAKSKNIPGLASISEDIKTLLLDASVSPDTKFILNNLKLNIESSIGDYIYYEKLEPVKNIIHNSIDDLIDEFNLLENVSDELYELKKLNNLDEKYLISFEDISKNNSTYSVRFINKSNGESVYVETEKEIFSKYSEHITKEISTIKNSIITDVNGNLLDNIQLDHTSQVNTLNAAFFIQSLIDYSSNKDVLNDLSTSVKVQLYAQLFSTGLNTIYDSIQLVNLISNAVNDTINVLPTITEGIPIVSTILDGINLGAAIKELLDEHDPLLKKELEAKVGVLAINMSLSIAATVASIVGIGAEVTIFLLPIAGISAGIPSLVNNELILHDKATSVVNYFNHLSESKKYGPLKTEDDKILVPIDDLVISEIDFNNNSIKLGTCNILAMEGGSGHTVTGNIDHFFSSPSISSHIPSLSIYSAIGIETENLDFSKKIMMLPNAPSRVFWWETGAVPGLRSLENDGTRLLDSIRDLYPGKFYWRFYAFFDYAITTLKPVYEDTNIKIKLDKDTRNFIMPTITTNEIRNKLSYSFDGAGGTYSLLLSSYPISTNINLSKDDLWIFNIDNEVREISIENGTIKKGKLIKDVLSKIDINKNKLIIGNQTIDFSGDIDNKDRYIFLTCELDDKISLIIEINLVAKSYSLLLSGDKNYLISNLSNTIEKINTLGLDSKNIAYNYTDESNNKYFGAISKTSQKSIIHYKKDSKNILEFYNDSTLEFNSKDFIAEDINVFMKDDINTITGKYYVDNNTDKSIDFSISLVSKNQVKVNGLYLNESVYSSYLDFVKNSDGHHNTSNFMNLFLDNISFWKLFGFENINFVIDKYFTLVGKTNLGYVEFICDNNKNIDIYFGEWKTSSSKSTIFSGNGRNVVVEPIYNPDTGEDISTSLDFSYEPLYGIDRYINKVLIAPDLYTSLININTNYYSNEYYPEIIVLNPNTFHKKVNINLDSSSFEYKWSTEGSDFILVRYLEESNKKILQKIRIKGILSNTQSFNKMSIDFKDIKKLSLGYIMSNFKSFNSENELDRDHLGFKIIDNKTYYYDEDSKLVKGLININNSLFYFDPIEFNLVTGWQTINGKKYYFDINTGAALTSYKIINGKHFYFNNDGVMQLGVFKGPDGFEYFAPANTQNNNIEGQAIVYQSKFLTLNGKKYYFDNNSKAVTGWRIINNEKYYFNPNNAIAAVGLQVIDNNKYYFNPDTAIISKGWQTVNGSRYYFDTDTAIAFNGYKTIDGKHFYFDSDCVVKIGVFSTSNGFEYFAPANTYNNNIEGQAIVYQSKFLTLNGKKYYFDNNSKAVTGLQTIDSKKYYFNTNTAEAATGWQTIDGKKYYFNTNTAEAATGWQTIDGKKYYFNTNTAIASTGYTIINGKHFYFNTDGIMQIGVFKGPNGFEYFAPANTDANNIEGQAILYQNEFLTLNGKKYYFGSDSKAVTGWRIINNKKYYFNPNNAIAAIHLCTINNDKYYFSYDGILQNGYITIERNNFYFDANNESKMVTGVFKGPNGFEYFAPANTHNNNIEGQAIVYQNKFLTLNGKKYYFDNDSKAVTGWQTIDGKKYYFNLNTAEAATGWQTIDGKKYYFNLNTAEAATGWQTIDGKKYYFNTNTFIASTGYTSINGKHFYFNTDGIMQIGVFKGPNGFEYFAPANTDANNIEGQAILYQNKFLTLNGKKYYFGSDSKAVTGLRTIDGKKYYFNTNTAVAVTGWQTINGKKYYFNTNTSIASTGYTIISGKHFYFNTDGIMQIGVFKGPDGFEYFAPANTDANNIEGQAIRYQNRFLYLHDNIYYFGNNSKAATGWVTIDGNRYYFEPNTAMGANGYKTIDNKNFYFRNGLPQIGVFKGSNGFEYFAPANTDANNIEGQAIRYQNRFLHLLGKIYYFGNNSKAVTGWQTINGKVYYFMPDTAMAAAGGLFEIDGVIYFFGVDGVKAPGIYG
Listing of entries alongside the reported koff.

BINDER	ENDPOINT_UNIT	koff
A20.1m (VHH, also called mutant A20.1; disulfide mutant of A20.1) VHH: QVQLVESGGGLAQAGGSLRLSCAASGRTFSMDPMAWFRQPPGKEREFVCAGSSTGRTTYYADSVKGRFTCSRDNAKNTVYLQMNSLKPEDTAVYYCAAAPYGANWYRDEYAYWGQGTQVTVSS	s⁻¹	0.0059
A4.2m (VHH, also called mutant A4.2; disulfide mutant of A4.2) VHH: QVKLEESGGGLVQAGGSLRLSCAASGRTFNTLSMGWFRQAPGKEREFVCAVSRSGGSTYYADSVKGRFTCSRDNAKNTVYLQMNSLKPEDTAVYYCAAAATKSNTTAYRLSFDYWGQGTQVTVSS	s⁻¹	0.016
A26.8m (VHH, also called mutant A26.8; disulfide mutant of A26.8) VHH: QVKLEESGGGLVQAGGSLRLSCAASERTFSRYPVAWFRQAPGAEREFVCVISSTGTSTYYADSVKGRFTCSRDNAKVTVYLQMNNLKREDTAVYFCAVNSQRTRLQDPNEYDYWGQGTQVTVSS	s⁻¹	0.019
A5.1m (VHH, also called mutant A5.1; disulfide mutant of A5.1) VHH: QVKLEESGGGLVQAGGSLRLSCAASGRTFSMYRMGWFRQAPGKEREFVCVITRNGSSTYYADSVKGRFTCSRDNAKNTVYLQMNSLKPEDTALYYCAATSGSSYLDAAHVYDYWGQGTQVTVSS	s⁻¹	0.013
